System: NCI/ADR-RES ovarian
EXPERIMENT_NOTES: NCI tumour cell line growth inhibition, 48 h
ENDPOINT: GI50

{"columns": ["MOL_SMILES", "TESTED_TARGET", "OBSERVED_RESULT"],
 "data": [
  ["COc1ccccc1CNCCCN1C(=O)c2ccc3c4c(ccc(c24)C1=O)C(=O)N(CCCNCCCCNCCCCN)C3=O", "NCI/ADR-RES ovarian", "12800 nM"],
  ["C=C1C(=O)O[C@H]2[C@H]1CC/C(COC(=O)/C=C\\C(=O)NCc1ccc(Cn3c(=O)sn(-c4ccc(OC)cc4)c3=O)cc1)=C\\CC[C@@]1(C)O[C@@H]21", "NCI/ADR-RES ovarian", "1110 nM"],
  ["CCCn1cc(C2=C(c3cn(C)c4ccccc34)C(=O)NC2=O)c2ccccc21", "NCI/ADR-RES ovarian", "1320 nM"],
  ["O=C(CSc1nc2ccc([N+](=O)[O-])cc2[nH]1)Nc1cccc(Cl)c1", "NCI/ADR-RES ovarian", "2410 nM"],
  ["O=C(Nc1ncc(Cc2ccccc2)s1)c1ccc2c(c1)OCCO2", "NCI/ADR-RES ovarian", "39.5 nM"]
]}

// provenance: PubChem BioAssay (NCI)
